Just for reference, patent US11325899B2 is where these values come from.

- target: EP4 receptor (Homo sapiens, UniProt P35408)
- Construct: BT549 breast cancer cells, express high endogenous EP4 levels and very low EP2 levels
- Sequence (P35408 whole entry): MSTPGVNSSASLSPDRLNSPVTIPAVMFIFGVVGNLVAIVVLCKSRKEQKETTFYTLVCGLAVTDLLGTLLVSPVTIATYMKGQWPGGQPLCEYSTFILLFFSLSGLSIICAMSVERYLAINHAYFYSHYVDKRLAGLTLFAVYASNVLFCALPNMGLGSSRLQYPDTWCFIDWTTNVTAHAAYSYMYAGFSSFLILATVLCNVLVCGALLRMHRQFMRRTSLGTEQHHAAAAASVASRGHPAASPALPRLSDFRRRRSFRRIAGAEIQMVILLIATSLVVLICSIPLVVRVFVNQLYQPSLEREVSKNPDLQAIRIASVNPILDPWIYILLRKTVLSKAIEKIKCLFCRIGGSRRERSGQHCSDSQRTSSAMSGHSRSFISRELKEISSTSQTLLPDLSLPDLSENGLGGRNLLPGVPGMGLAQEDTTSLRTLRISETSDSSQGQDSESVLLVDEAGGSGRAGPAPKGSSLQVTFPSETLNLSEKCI
- procedure-details: hEP4 cAMP assay (BT549 breast cancer cells, HTRF cAMP, PGE2 stimulation)
- cond: antagonistic activity, PGE2 6 nM (EC80)
Rule: measured IC50 below 200 nM gets Met; anything equal to or greater than 200 nM gets Not met.

In [3]: df
Out[3]:
                                    compound  assigned_category
 0  COc1ccc(F)c2c(CCNc3cc(-c4ccc(C(=O)O)c(OC5CCC5)c4F)ncn3)c(C)sc12            Not met
 1  CCOc1cc(-c2cc(NCCc3c(C)oc4c(Cl)cccc34)ncn2)ccc1OCC(=O)O                Met
 2  COc1ccc(Cl)c2c(CCNc3cc(-c4ccc(C(=O)O)c(OC5CCCC5)c4)ncn3)c(C)sc12            Not met
 3  CCOc1cc(-c2cc(NCCc3c(C)sc4c(Cl)cc(F)cc34)ncn2)ccc1CC(=O)O            Not met
 4  CCOc1cc(-c2cc(NCCc3c(C)sc4c(Cl)ccc(Cl)c34)ncn2)ccc1CC(=O)O            Not met
 5  CCOc1cc(-c2cc(NCCc3c(C#N)sc4c(C)cc(F)cc34)ncn2)cc(F)c1CC(=O)O                Met
 6  CCOc1cc(-c2cc(NCCc3c(C#N)sc4c(C)cc(F)cc34)ncn2)ccc1OCCC(=O)O                Met
 7  CCOc1cc(-c2cc(NCCc3c(C)sc4c(C)ccc(F)c34)ncn2)cc(C)c1C(=O)O            Not met
 8  CCOc1cc(-c2cc(NCCc3c(C)oc4c(Cl)cc(Cl)cc34)ncn2)ccc1C(=O)O            Not met
 9  CCOc1cc(-c2cc(NCCc3c(C)sc4c(C)ccc(F)c34)ncn2)ccc1C(=O)O            Not met
10  CCOc1cc(-c2cc(NCCc3c(C)oc4c(Cl)cccc34)ncn2)sc1C(=O)O                Met
11  CCCc1cc(-c2cc(NCCc3c(C)sc4c(C)cc(F)cc34)ncn2)cc(F)c1C(=O)O            Not met
12  Cc1cc(-c2cc(NCCc3c(C)oc4c(C)cc(F)cc34)ncn2)sc1C(=O)O                Met
13  CCOc1cc(-c2cc(NCCc3c(C)sc4c(C)c(F)ccc34)ncn2)ccc1C(=O)O            Not met
14  COc1cc(F)c(F)c2c(CCNc3cc(-c4ccc(C(=O)O)c(OC5CCC5)c4)ncn3)c(C)oc12            Not met
15  CCOc1cc(-c2cc(NCCc3c(C)oc4c(OC)ccc(F)c34)ncn2)ccc1C(=O)O            Not met
16  CCOc1cc(-c2cc(NCCc3c(C)sc4c(C)cccc34)ncn2)sc1C(=O)O                Met
17  CCOc1cc(-c2cc(NCCc3c(C)sc4c(C)ccc(Cl)c34)ncn2)sc1C(=O)O                Met
18  Cc1sc2c(C)cccc2c1CCNc1cc(-c2ccc(C(=O)O)cc2)ncn1            Not met
19  CCSc1cc(-c2cc(NCCc3c(C)sc4c(C)cccc34)ncn2)ccc1C(=O)O            Not met
20  CSc1cc(-c2cc(NCCc3c(C)sc4ccccc34)ncn2)ccc1C(=O)O            Not met
21  CCOc1cc(-c2cc(NCCc3c(C)oc4c(Cl)cccc34)ncn2)ccc1C(=O)O            Not met
22  COc1ccc(Cl)c2c(CCNc3cc(-c4cc(C)c(C(=O)O)s4)ncn3)c(C)sc12            Not met
23  CCOc1cc(-c2cc(NCCc3c(C)sc4c(C)cc(F)cc34)ncn2)ccc1C(=O)C(=O)O                Met
24  CCOc1cc(-c2cc(NCCc3c(C)sc4c(C)cccc34)ncn2)ccc1C(C)C(=O)O (racemic)            Not met
25  CCCOc1cc(-c2cc(NCCc3c(C)sc4c(Cl)ccc(Cl)c34)ncn2)ccc1C(=O)O            Not met
26  CCCSc1cc(-c2cc(NCCc3c(C)oc4ccccc34)ncn2)ccc1C(=O)O            Not met
27  CCCOc1cc(-c2cc(NCCc3c(C)sc4c(C)cc(F)cc34)ncn2)ccc1CC(=O)O            Not met
28  CCOc1cc(-c2cc(NCCc3c(C)oc4c(OC)cc(F)c(F)c34)ncn2)sc1C(=O)O                Met
29  CCOc1cc(-c2cc(NCCc3c(C)sc4c(C)ccc(F)c34)ncn2)ccc1OCC(=O)O                Met
